B1: NET1 (parent)
chain: PTPAKRRSSALWSEMLDITMKESL

variants of: B1; assay: protein stability index of a GFP-peptide fusion (GPS, HEK-293T) (PSI 1-6); higher = more stable; conditions: c terminus: a fixed tail appended;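 further: lentivirally expressed fusions sorted by FACS into six bins by GFP to DsRed ratio, PSI derived from sequencing read proportions per bin multiplied by bin number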
recordedMetric: protein stability index
Simply state the number, no unit and no words.

T2D    2.73

Respond only with protein stability index recorded for S23C
1.4

Specify measured protein stability index for L11S .
1.94

For K5E , write its protein stability index.
2.54

Supply recorded protein stability index for K21E here.
2.8
